These measurements were taken from patent US20230137562A1.

# maps each entry to its IC50 (µM), Tau40 assay (ThT)
Biological target: His-Tau40P301L Tau (UniProt P10636-8 1-441)
Sequence (P10636 other isoform, or with tags, fused parts or gaps limits assumed): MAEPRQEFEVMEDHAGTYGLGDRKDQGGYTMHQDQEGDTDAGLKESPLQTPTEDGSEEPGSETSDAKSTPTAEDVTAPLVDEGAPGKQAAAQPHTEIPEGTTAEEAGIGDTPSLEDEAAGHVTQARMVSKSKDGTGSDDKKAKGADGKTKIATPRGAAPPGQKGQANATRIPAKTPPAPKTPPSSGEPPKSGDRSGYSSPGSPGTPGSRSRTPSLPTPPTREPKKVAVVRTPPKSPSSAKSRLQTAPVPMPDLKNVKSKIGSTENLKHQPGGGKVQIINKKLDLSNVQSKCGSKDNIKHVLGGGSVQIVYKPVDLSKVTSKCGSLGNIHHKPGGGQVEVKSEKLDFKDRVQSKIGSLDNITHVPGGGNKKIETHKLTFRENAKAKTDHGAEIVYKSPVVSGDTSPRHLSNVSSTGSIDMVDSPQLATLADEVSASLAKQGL
Assay: cell-based or functional assay
Square brackets hold non-standard residues; d marks the D form. Ends that are not written are not given here. Orn = NCCC[C@H](N)C(=O)O

{"BINDER": "ARIWIRYW", "IC50 (µM), Tau40 assay (ThT)": 4.08}
{"BINDER": "IWIRYWWR", "IC50 (µM), Tau40 assay (ThT)": 2.44}
{"BINDER": "IRWRIRW", "IC50 (µM), Tau40 assay (ThT)": 2.82}
{"BINDER": "RIWIRIW", "IC50 (µM), Tau40 assay (ThT)": 6.47}
{"BINDER": "HWKIIWYR", "IC50 (µM), Tau40 assay (ThT)": 2.39}
{"BINDER": "ILRYWH", "IC50 (µM), Tau40 assay (ThT)": 2.49}
{"BINDER": "WRIHIRW", "IC50 (µM), Tau40 assay (ThT)": 3.09}
{"BINDER": "RIRILIL", "IC50 (µM), Tau40 assay (ThT)": 2.15}
{"BINDER": "IWIRLW", "IC50 (µM), Tau40 assay (ThT)": 11.4}
{"BINDER": "FRIRIHHW", "IC50 (µM), Tau40 assay (ThT)": 3.2}
{"BINDER": "IWLRLW", "IC50 (µM), Tau40 assay (ThT)": 9.93}
{"BINDER": "WRIWARYW", "IC50 (µM), Tau40 assay (ThT)": 2.95}
{"BINDER": "WRIRIRR", "IC50 (µM), Tau40 assay (ThT)": 3.15}
{"BINDER": "WRLWFWWR", "IC50 (µM), Tau40 assay (ThT)": 1.82}
{"BINDER": "W[Orn]I[Orn]I[Orn]W [WOIOIOW]", "IC50 (µM), Tau40 assay (ThT)": 1.17}
{"BINDER": "WRIWLYWR", "IC50 (µM), Tau40 assay (ThT)": 1.69}
{"BINDER": "RIRIWKW", "IC50 (µM), Tau40 assay (ThT)": 5.71}
